Here, each record is paired with measured AUC0.5-4 data.
Details: rat, in vivo, po, 100 mg/kg, 4 h
# unit: ng·h/mL | format: bare number

Example results:
CC(=O)O.CNC(=O)[C@H](C)NC(=O)[C@H](CC(C)C)C(Cc1cccc(CN)c1)C(=O)NO (single isomer, unassigned) [Compound No. 53]    4816
CC(=O)O.CNC(=O)[C@H](Cc1ccc(CNC(C)=N)cc1)NC(=O)[C@H](CC(C)C)[C@H](O)C(=O)NO [Compound No. 43]    3289

Form field AUC0.5-4, entry CC(=O)O.CC(=O)O.CNC(=O)[C@H](CCCN)NC(=O)[C@H](CC(C)C)C(Cc1ccc(CN)cc1)C(=O)NO (single isomer, unassigned) [Compound No. 48] : 20203

Form field AUC0.5-4, entry CC(=O)O.CC(=O)O.CNC(=O)[C@H](Cc1ccc(CN)cc1)NC(=O)[C@H](CC(C)C)C(Cc1ccc(CN)cc1)C(=O)NO (single isomer, unassigned) [Compound No. 49] : 15292

Form field AUC0.5-4, entry CC(=N)NCCCC[C@H](NC(=O)[C@H](CC(C)C)C(C)C(=O)NO)C(=O)NC(C)CO.CC(=O)O (mixture of isomers) [Compound No. 39] : 14996
